Assayed target: Mitogen-activated protein kinase 1 (Homo sapiens) (UniProt P28482)
Sequence (P28482 whole entry): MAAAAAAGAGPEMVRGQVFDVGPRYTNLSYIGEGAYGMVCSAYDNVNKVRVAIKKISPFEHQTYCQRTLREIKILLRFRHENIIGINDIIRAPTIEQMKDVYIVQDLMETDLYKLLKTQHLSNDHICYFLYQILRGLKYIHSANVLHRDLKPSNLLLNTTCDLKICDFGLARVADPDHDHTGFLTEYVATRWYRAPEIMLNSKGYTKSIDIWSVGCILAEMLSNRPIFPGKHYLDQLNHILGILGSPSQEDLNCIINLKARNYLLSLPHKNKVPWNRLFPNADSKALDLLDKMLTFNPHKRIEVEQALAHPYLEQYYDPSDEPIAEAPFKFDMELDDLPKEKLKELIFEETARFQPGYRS
Study conditions: Compound concentration 20.0 uM
Description: Thermal Shift Assay. Domain: start/stop: M1-S360
// NB: equality with 0.01 °C counts as condition not met; only ΔTm strictly below is condition met

| Compound | Class |
| --- | --- |
| CCC(=O)N[C@H]1CC[C@@H](C(=O)N(C)c2ccc(-c3nc4ccccc4o3)cc2)C1 | condition met |

Does O=C(Nc1c(Cl)cncc1Cl)c1ccc(OC(F)F)c(OCC2CC2)c1 have ΔTm strictly under 0.01 °C? condition not met

Does CC(C)(Sc1ccncc1-c1ccc(C#N)c2ccccc12)C(=O)O have ΔTm strictly under 0.01 °C? condition not met

Does CC1C(C#N)=C(N)OC2=C1C(=O)CC(c1cccc3ccccc13)C2 (centres undefined) have ΔTm strictly under 0.01 °C? condition met

====

Assayed target: Transcription intermediary factor 1-alpha (Homo sapiens)
Study conditions: Compound concentration 20.0 uM
Residues, ends and D or L forms follow the SMILES beside them. *: point of attachment. CH2Cl = ClC*
Reported ΔTm maps to class as: class A (below -0.6 °C), class B (-0.6 °C to below 0.5 °C), class C (0.5 °C or more)

Check out these entries, answers already filled in.
| Compound | Assayed target | Class |
| --- | --- | --- |
| Cc1nc(-c2cnn(C)c2-c2ccc(C(F)(F)F)cn2)c2c(N3CCC3)ncnn12 | Transcription intermediary factor 1-alpha (Homo sapiens) | class B |
| CC(=O)Nc1ccc(C(=O)Nc2ccc(F)cc2N)cc1 | Transcription intermediary factor 1-alpha (Homo sapiens) | class B |
| CCc1c(C#N)c(S[C@@H](C(N)=O)c2ccccc2)nc(N(C)C)c1C#N | Transcription intermediary factor 1-alpha (Homo sapiens) | class C |
| CCCN(CCC)c1ccc(C=O)cc1Br | Transcription intermediary factor 1-alpha (Homo sapiens) | class B |
| Cc1c(CN2CCC(Nc3ncnc4sc(CC(F)(F)F)cc34)CC2)ccc2c1cc(C#N)n2Cc1cn[nH]c1 | Transcription intermediary factor 1-alpha (Homo sapiens) | class C |
| COc1c(CN)cc(CN)cc1OCCCN1Cc2ccccc2C1 | Transcription intermediary factor 1-alpha (Homo sapiens) | class C |
| Cc1sc(C(=O)c2cncnc2N[C@@H]2C[C@H](COS(N)(=O)=O)[C@@H](O)C2)cc1[C@@H]1NCCc2ccc(Cl)cc21 | Transcription intermediary factor 1-alpha (Homo sapiens) | class B |
| O=C(O)Cn1nnc(-c2ccc(CN(CCCCOc3ccc(CN4CCCC4)cc3)CCc3ccccc3)cc2)n1 | Transcription intermediary factor 1-alpha (Homo sapiens) | class A |

Form field 'band' for CC1(C)c2cccc(C(=O)NO)c2CN1c1cnc(C(F)(F)F)cn1 class A

Form field 'band' for Cc1cc(C(=O)CN2CCCCC2)c(C)n1-c1ccc(Cl)cc1 class B

Form field 'band' for CN(C)Cc1ccc(-c2nc3cccc4c3n2CCNC4=O)cc1 class C

Form field 'band' for CS(=O)(=O)c1ccc(-c2cnc(NCc3ccco3)n3cnnc23)cc1 class A

Form field 'band' for CCCN1CCN(c2ccc(C(=O)NC3(C(=O)NCC#N)CCCCC3)cc2)CC1 class B

Form field 'band' for CN1CC[C@@H](Oc2ccc(F)c(-c3nc4c(o3)C(=O)c3ccccc3C4=O)c2Cl)C1 class A

Form field 'band' for COC(=O)C1=C(C(=O)OC)[C@@]2([C@@H](Cc3ccc(C)cc3)Nc3ccccc3)C=C[C@@H]1O2 class C

Form field 'band' for O=C(COc1ccc(-c2oc3cc(O)c(C(=O)O)cc3c2C#Cc2cccc(Cl)c2)cc1)NC1CC1 class A

Form field 'band' for CC(=O)N[C@@H](CC(C)C)C(=O)N[C@@H](CCC(=O)O)C(=O)N[C@@H](Cc1cnc[nH]1)C(=O)N[C@@H](CC(=O)O)C(=O)CCl (Ac-LEHD-CH2Cl) class A

Form field 'band' for CCN(CC)S(=O)(=O)c1cc(Nc2nccc(-c3ccnc(-c4ccc(NC(=O)NC)cc4)c3)n2)ccc1Cl class B

====

Assayed target: Transcription intermediary factor 1-alpha (Homo sapiens) (UniProt O15164)
Sequence (O15164 whole entry): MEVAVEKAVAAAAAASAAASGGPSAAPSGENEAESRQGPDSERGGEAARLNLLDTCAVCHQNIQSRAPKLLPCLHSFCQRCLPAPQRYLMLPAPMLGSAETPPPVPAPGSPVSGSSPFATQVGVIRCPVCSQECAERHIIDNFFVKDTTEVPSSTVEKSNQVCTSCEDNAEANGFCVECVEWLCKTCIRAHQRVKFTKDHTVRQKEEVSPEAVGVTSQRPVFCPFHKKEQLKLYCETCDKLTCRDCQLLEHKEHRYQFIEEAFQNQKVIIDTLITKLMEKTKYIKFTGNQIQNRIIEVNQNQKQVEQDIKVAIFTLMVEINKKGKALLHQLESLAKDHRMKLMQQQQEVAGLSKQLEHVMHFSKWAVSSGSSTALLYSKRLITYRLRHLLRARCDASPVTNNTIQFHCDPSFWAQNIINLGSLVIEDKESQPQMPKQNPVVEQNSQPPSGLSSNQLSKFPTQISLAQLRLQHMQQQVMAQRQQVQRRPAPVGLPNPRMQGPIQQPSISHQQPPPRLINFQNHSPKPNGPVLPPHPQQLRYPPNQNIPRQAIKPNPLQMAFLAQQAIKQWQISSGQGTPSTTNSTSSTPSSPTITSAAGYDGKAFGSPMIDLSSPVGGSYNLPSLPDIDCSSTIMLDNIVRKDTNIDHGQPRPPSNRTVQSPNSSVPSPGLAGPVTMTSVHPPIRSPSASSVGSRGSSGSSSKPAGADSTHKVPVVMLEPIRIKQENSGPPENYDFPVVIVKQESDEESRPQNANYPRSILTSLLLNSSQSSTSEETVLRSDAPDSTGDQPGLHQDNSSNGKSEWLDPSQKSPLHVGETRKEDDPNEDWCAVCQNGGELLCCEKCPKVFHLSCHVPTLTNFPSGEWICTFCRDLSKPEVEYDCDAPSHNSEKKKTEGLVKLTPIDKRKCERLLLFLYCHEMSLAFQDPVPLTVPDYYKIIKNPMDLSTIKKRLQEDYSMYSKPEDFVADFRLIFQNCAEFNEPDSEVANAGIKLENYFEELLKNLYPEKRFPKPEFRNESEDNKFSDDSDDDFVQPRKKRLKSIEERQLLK
Study conditions: Compound concentration 20.0 uM
Assay endpoint: ΔTm (°C)
Quick note: give the figure in °C, leave out the unit.

| Structure smiles string | Assayed target | Assay endpoint | Obs value |
| --- | --- | --- | --- |
| C[C@]12CCCN1CC1=NNC(=O)c3cc(F)cc4[nH]c2c1c34 | Transcription intermediary factor 1-alpha (Homo sapiens) (UniProt O15164) | ΔTm | 0 |

Consider the compound shown here: CCc1ccccc1NC(=O)CSC(=O)NNC(=O)[C@H](Cc1c[nH]c2ccccc12)NC(=O)OC(C)(C)C What is its recorded ΔTm? 5.76

Consider the compound shown here: O=C(O)CCNc1cc(N2CCc3ccccc3CC2)nc(-c2cccnc2)n1 What is its recorded ΔTm? -0.51

Consider the compound shown here: Cc1ncsc1-c1ccc(CNC(=O)[C@@H]2C[C@@H](O)CN2C(=O)[C@@H](NC(=O)COCCOCCOc2ccc(-c3ccc4ncnc(Nc5ccc(OCc6cccc(F)c6)c(Cl)c5)c4c3)cc2)C(C)(C)C)cc1 What is its recorded ΔTm? 10.8

====

Assayed target: Cyclin-dependent kinase 2 (Homo sapiens) (UniProt P24941)
Study conditions: Compound concentration 20.0 uM
Description: Thermal Shift Assay. Domain: start/stop: M1-L298
Residues, ends and D or L forms follow the SMILES beside them. *: point of attachment. Cbz = O=C(OCc1ccccc1)*; CH2F = FC*
Attribute: ΔTm
Quick note: give the figure in °C, leave out the unit.

Some compounds with recorded ΔTm:
| Compound | Assay endpoint | Obs value |
| --- | --- | --- |
| CCn1c(=S)[nH]c2cc3c(NCc4ccccc4N4CCC(CO)CC4)ncnc3cc21 | ΔTm | -0.14 |
| O=C(NCc1ccc(F)cc1)C1CCN(S(=O)(=O)c2cc(Cl)cc(Cl)c2)CC1 | ΔTm | 0.65 |
| Cc1cc(C(=O)CN2CCC(O)CC2)c(C)n1-c1ccc(C#N)cc1 | ΔTm | -0.05 |
| COc1cc2c(cc1OC)[C@H]1C[C@@H](OC(=O)[C@@H](N)C(C)C)[C@H](CC(C)C)CN1CC2 | ΔTm | 0.58 |

Consider the compound shown here: O=C(c1ccc2[nH]ccc2c1)N1CCN(S(=O)(=O)c2ccc3[nH]c(=O)oc3c2)CC1 What is its recorded ΔTm? -0.68

Consider the compound shown here: COC(=O)CC[C@H](NC(=O)[C@H](Cc1c[nH]c2ccccc12)NC(=O)OCc1ccccc1)C(=O)N[C@@H](Cc1cnc[nH]1)C(=O)N[C@@H](CC(=O)OC)C(=O)CF (Cbz-WE(OMe)HD(OMe)-CH2F) What is its recorded ΔTm? 0.18

Consider the compound shown here: CN1CCc2c(n(Cc3ccc(C(=O)NO)cc3)c3ccccc23)C1 What is its recorded ΔTm? 0.56

Consider the compound shown here: CS(=O)(=O)c1ccc(Oc2cc(F)cc(C#N)c2)c2c1[C@H](O)C(F)(F)C2 What is its recorded ΔTm? 0.56

Consider the compound shown here: N#Cc1c(N)[nH]c2cc(/C=C/c3cccc(F)c3)ccc12 What is its recorded ΔTm? 2.67

Consider the compound shown here: Oc1ccc(-c2c(-c3ccccc3)nn3c(C(F)(F)F)cc(C(F)(F)F)nc23)cc1 What is its recorded ΔTm? 0.46

Consider the compound shown here: COc1ccc(C(=O)C2CCN(CC(=O)N(Cc3nc4c(c(=O)[nH]3)COCC4)CC3CC3)CC2)cc1 What is its recorded ΔTm? 0.34

====

Assayed target: Casein kinase I isoform delta (Homo sapiens) (UniProt P48730)
Sequence (P48730 whole entry, looked up, canonical isoform): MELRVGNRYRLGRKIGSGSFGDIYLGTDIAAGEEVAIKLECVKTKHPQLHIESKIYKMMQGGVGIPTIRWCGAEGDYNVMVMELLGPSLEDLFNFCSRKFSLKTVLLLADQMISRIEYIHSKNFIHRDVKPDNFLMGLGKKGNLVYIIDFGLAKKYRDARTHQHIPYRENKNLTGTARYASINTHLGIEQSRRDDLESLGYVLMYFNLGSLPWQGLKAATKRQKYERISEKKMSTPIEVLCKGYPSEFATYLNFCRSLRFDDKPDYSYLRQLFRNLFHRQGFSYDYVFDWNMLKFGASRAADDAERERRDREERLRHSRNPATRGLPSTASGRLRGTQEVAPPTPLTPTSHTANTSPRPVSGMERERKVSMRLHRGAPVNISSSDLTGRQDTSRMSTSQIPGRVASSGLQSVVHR
Study conditions: Compound concentration 20.0 uM
Description: Thermal Shift Assay. Domain: start/stop: M1-K294
Assay endpoint: ΔTm
Hi, when you answer, please include the unit after the number. Thanks!

Consider the compound shown here: CNC(=O)N1CCc2c(c(N3CCCc4cc(-c5cnn(C)c5)c(C(F)F)cc43)nn2C2CCOCC2)C1 What is its recorded ΔTm? 0.34 °C

====

Assayed target: Mitogen-activated protein kinase 1 (Homo sapiens) (UniProt P28482)
Study conditions: Compound concentration 20.0 uM
Assay endpoint: ΔTm
Hi, when you answer, please include the unit after the number. Thanks!

Some molecules with recorded ΔTm:
| Molecule | ΔTm |
| --- | --- |
| CN1CCN2c3c(cccc31)[C@@H]1CN(CCCC(=O)c3ccc(F)cc3)CC[C@@H]12 | 0.07 °C |
| CCOc1ccc2nc(-c3cccc(OCC(=O)NC(C)C)c3)nc(Nc3ccc(-c4cn[nH]c4)cc3)c2c1 | -2.16 °C |
| Nc1ncnc2c1ncn2[C@@H]1O[C@H](C(=O)N2CCN(CC(=O)Nc3cccc4c3CNC4=O)CC2)[C@@H](O)[C@H]1O | 0.31 °C |
| Cc1cc(OCCCNCC(C)(C)C(N)=O)ccc1Cc1c(O[C@@H]2O[C@H](CO)[C@@H](O)[C@H](O)[C@H]2O)n[nH]c1C(C)C | 0.38 °C |
| Cn1c(OC[C@H]2CC[C@H](C(F)(F)F)CC2)nn2c(C3CCOCC3)ncc2c1=O | 0.06 °C |
| COc1cc(C(=O)N2C[C@H](N)CC[C@@H]2C)cc2nc(-c3cc4cccnc4n3CC3CC3)n(C)c12 | -0.7 °C |
| COc1cc2c(NCC3CCN(C)CC3)cc(-c3ccc(C)o3)nc2cc1OCCCN1CCCC1 | 0.07 °C |
| Nc1ncnc2nc(-c3ccc(N4CCOCC4)nc3)cc(-c3cccc(Br)c3)c12 | -0.25 °C |

Consider the molecule shown here: CCCCCCCCCCCCCC(=S)NCCCC[C@H](NC(=O)OCc1ccccc1)C(=O)Nc1ccccc1 What is its recorded ΔTm? 0.45 °C
